# Species: Rattus norvegicus
# Method description: Open TG-GATES - Regimen: Single
# Type: toxicity, organism-based, Sprague-Dawley
# Design: regimen Single, gender Male, age 6 weeks
# Conditions: in vivo, po, 0 mg/kg, 24 h, tissue Liver, route gavage, dose level Control
Rule: measured LIVER below 10 g gets t; anything equal to or greater than 10 g gets f.

molecule=Cc1cccc(Nc2cc(Cl)nc(SCC(=O)O)n2)c1C cat=t
molecule="COc1ccc(Cl)cc1C(=O)NCCc1ccc(S(=O)(=O)NC(=O)NC2CCCCC2)cc1 [GLYBURIDE]" cat=f
molecule="COc1ccc(O)c(C(C)(C)C)c1.COc1ccc(O)cc1C(C)(C)C [BUTYLATED HYDROXYANISOLE]" cat=t

Exercise: Is 10 g strictly greater than the molecule's reported LIVER? molecule: CS(=O)(=O)Nc1ccc([N+](=O)[O-])cc1Oc1ccccc1 [NIMESULIDE]
Solution: f

Exercise: Is 10 g strictly greater than the molecule's reported LIVER? molecule: `Cn1cnc([N+](=O)[O-])c1Sc1ncnc2nc[nH]c12`
Solution: t

Exercise: Is 10 g strictly greater than the molecule's reported LIVER? molecule: `O=C1NC(=O)C(c2ccccc2)(c2ccccc2)N1`
Solution: f

Exercise: Is 10 g strictly greater than the molecule's reported LIVER? molecule: `C=CCO`
Solution: f

Exercise: Is 10 g strictly greater than the molecule's reported LIVER? molecule: S=C=Nc1cccc2ccccc12 [1-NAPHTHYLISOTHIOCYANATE]
Solution: f

* * *

# Organism: Rattus norvegicus
# Method description: Open TG-GATES - Regimen: Single
# Format: toxicity, organism-based, Sprague-Dawley
# Set-up: regimen Single, gender Male, age 6 weeks
# Conditions: in vivo, po, 0 mg/kg, 24 h, tissue Plasma, route gavage, dose level Control
Label criterion not met if LDH falls below 80 IU/L; label criterion met in every other case.

Examples from the recorded data:
compound="S=C=Nc1cccc2ccccc12 [1-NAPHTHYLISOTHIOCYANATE]" cat="criterion met"
compound=Cc1cccc(Nc2cc(Cl)nc(SCC(=O)O)n2)c1C cat="criterion not met"
compound=Cc1cnc(NC(=O)C2=C(O)c3ccccc3S(=O)(=O)N2C)s1 cat="criterion met"

With those in mind, consider the next compound.
Exercise: Has COc1ccc(O)c(C(C)(C)C)c1.COc1ccc(O)cc1C(C)(C)C [BUTYLATED HYDROXYANISOLE] a recorded LDH greater than or equal to 80 IU/L?
Solution: criterion not met

* * *

# Organism: Rattus norvegicus
# Method description: Open TG-GATES - Regimen: Single
# Format: toxicity, organism-based, Sprague-Dawley
# Set-up: regimen Single, gender Male, age 6 weeks
# Conditions: in vivo, po, 0 mg/kg, 24 h, tissue Plasma, route gavage, dose level Control
Quantity measured: GLC (mg/dL)
The figure you give is taken to be in mg/dL; do not add the unit.

Exercise: Could you share which GLC value was measured for `Cc1cccc(Nc2cc(Cl)nc(SCC(=O)O)n2)c1C` ?
Solution: 179.8

Exercise: Could you share which GLC value was measured for `C=CCO` ?
Solution: 196.4

Exercise: Could you share which GLC value was measured for COc1ccc(Cl)cc1C(=O)NCCc1ccc(S(=O)(=O)NC(=O)NC2CCCCC2)cc1 [GLYBURIDE] ?
Solution: 215.6

Exercise: Could you share which GLC value was measured for COc1ccc(O)c(C(C)(C)C)c1.COc1ccc(O)cc1C(C)(C)C [BUTYLATED HYDROXYANISOLE] ?
Solution: 173

Exercise: Could you share which GLC value was measured for `O=C1CN(/N=C/c2ccc(-c3ccc([N+](=O)[O-])cc3)o2)C(O)=N1` ?
Solution: 198.4

Exercise: Could you share which GLC value was measured for `Cn1cnc([N+](=O)[O-])c1Sc1ncnc2nc[nH]c12` ?
Solution: 185.6

Exercise: Could you share which GLC value was measured for `O=C1NC(=O)C(c2ccccc2)(c2ccccc2)N1` ?
Solution: 187.6

Exercise: Could you share which GLC value was measured for CNCCC(Oc1ccc(C(F)(F)F)cc1)c1ccccc1.Cl (stereo not given) [FLUOXETINE HYDROCHLORIDE] ?
Solution: 194.6

Exercise: Could you share which GLC value was measured for CS(=O)(=O)Nc1ccc([N+](=O)[O-])cc1Oc1ccccc1 [NIMESULIDE] ?
Solution: 190.4

Exercise: Could you share which GLC value was measured for S=C=Nc1cccc2ccccc12 [1-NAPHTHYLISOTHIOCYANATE] ?
Solution: 188.8
